- assay system: human Fatty Acid Synthase (Homo sapiens)
- Construct: made in house
- Sequence (P49327 whole entry): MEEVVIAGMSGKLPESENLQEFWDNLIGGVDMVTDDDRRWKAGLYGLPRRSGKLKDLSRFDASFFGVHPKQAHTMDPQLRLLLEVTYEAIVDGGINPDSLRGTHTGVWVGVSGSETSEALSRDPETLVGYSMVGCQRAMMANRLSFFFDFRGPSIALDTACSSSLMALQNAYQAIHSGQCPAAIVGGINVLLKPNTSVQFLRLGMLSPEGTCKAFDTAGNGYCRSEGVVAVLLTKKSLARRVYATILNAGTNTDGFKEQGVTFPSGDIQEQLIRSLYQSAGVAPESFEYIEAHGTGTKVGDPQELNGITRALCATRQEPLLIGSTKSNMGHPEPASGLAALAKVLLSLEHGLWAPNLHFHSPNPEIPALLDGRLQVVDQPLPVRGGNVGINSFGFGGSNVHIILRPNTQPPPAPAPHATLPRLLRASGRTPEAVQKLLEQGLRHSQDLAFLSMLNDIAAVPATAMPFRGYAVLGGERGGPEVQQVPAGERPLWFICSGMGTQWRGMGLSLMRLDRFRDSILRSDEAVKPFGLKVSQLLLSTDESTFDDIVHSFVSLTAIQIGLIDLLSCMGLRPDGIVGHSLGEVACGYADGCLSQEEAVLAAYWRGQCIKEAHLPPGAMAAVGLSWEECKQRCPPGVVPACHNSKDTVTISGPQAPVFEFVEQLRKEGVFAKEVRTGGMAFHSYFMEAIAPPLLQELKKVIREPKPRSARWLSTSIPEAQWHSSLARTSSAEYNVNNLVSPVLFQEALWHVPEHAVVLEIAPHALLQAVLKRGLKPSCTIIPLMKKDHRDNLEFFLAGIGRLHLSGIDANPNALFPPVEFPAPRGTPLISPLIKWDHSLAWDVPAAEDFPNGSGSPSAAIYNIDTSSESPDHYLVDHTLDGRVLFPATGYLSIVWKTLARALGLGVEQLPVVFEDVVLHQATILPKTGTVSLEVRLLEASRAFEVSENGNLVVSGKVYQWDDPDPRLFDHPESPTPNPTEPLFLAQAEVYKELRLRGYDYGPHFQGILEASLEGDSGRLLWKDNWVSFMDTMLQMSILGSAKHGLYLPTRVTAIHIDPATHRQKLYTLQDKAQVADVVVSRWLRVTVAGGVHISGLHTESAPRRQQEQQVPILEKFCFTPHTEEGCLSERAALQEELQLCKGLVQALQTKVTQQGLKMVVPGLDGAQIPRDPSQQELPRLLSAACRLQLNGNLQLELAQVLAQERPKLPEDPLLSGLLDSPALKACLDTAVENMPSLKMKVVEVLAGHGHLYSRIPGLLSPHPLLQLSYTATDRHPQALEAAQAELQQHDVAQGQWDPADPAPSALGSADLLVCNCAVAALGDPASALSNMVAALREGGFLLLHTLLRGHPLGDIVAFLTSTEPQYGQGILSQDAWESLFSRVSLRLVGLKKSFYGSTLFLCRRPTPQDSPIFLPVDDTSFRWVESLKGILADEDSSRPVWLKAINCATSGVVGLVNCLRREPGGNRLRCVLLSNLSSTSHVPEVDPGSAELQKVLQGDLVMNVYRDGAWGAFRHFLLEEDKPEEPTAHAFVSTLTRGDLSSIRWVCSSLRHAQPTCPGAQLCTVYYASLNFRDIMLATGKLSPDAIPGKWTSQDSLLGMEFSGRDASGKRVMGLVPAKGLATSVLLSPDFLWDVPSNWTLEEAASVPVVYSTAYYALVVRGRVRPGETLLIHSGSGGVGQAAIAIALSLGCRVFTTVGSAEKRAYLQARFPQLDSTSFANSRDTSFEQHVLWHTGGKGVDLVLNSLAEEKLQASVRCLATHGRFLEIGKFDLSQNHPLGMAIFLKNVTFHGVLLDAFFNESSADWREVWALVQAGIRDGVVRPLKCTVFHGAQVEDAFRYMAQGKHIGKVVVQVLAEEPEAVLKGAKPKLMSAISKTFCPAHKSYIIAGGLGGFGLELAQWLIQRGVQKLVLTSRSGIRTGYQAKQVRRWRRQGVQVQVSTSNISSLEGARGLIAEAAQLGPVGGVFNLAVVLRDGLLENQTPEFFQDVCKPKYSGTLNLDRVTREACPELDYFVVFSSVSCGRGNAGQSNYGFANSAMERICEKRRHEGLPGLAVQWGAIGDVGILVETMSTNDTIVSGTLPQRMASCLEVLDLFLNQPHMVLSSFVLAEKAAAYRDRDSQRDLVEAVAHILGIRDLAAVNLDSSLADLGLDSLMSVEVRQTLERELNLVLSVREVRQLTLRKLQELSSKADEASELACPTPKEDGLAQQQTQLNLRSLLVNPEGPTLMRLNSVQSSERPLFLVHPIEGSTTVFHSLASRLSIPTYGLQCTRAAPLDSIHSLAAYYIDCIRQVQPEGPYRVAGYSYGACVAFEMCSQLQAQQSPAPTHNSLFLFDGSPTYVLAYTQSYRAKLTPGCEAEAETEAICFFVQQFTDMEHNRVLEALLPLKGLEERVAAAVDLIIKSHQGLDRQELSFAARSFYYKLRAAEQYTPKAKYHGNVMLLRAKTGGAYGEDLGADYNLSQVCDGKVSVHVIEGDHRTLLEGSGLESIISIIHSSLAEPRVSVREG
- method: Human FAS enzyme assay (decrease in NADPH fluorescence)
- Assay type: biochemical
- test settings: % inhibition at a concentration of 100 micromolar
Overview of reported inhibition at 100 µM across a group of compounds:
Field format: number, assumed %, no unit text.

Record excerpt, results attached:
Cc1ccc(C(=O)N2CCC(c3ccc(C#N)cc3)CC2)cc1NS(=O)(=O)c1ccc(=O)[nH]c1 [Example 102]    81
C#Cc1ccc(C2CCN(C(=O)c3ccc(C)c(NS(C)(=O)=O)c3)CC2)cc1 [Example 172]    85
CNCCCS(=O)(=O)Nc1cc(C(=O)N2CCC(c3ccc(C#N)cc3)CC2)ccc1C [Example 75]    93
CCCCS(=O)(=O)Nc1cc(C(=O)N2CCC(c3ccc(C#N)cc3)CC2)ccc1C [Example 12]    90

Indicate the recorded inhibition at 100 µM value for this compound: Cc1ccc(C(=O)N2CCC(c3ccc(C#N)cc3)CC2)cc1NS(=O)(=O)c1ccc2c(c1)CC(=O)N2 [Example 129] 95

Tell me inhibition at 100 µM reported for Cc1ccc(C(=O)N2CCC(c3ccc(C#N)cc3)CC2)cc1NS(=O)(=O)c1ccccc1F [Example 2] 82

Look up inhibition at 100 µM of COc1ccccc1S(=O)(=O)Nc1cc(C(=O)N2CCC(c3ccc(C#N)cc3)CC2)ccc1C [Example 25] and report it. 87

Specify measured inhibition at 100 µM for Cc1ccc(C(=O)N2CCC(c3ccc(C#N)c(Cl)c3)CC2)cc1NS(C)(=O)=O [Example 218] . 67

---

- assay system: human Fatty Acid Synthase (Homo sapiens)
- Construct: made in house
- method: Human FAS enzyme assay (decrease in NADPH fluorescence)
- Assay type: biochemical
- test settings: % inhibition at a concentration of 100 micromolar
inhibition at 100 µM values by entry
State the result as a value with its unit after it.

Please review the entries below; each comes with its answer.
Cc1ccc(C(=O)N2CCC(c3ccc(C(=O)c4nccs4)cc3)CC2)cc1NS(C)(=O)=O    110%
Cc1ccc(NS(=O)(=O)c2ccccc2)cc1C(=O)N1CCC(c2ccc(C#N)cc2)CC1    89%
COc1ccc(C(=O)N2CCC(c3ccc(C#N)cc3)CC2)cc1NS(C)(=O)=O    75%

Answer with reported inhibition at 100 µM of Cc1ccc(C(=O)N2CCC(c3ccc(-c4cnccn4)cc3)CC2)cc1NS(C)(=O)=O 92%

Using the record for Cc1ccc(NS(=O)(=O)c2ccc(C#N)cc2)cc1C(=O)N1CCC(c2ccc(C#N)cc2)CC1 , state its measured inhibition at 100 µM. 83%

Check the records and state inhibition at 100 µM for Cc1ccc(C(=O)N2CCC(c3ccc(C#N)cc3)CC2)cc1NS(=O)(=O)c1ccc(C#N)cc1 89%

Please give the documented inhibition at 100 µM of Cc1ccc(C(=O)N2CCC(c3ccc(C#N)cc3)CC2)cc1NS(=O)(=O)CCN1C(=O)c2ccccc2C1=O 100%

Tell me measured inhibition at 100 µM for CNC(=O)NCc1ccc(C2CCN(C(=O)c3ccc(C)c(NS(C)(=O)=O)c3)CC2)cc1 please. 81.8%

Recall and state the measured inhibition at 100 µM for Cc1ccc(C(=O)N2CCC(c3ccc(-c4ccccc4)cc3)CC2)cc1NS(C)(=O)=O . 71%
